Record form. Attribute: EC50. Fill in for each entry.
Target: T1, recombinant human IL4Rα-his protein (in house made) (human, UniProt P24394 26-232, limits assumed)
T1 construct: also called Human IL4Ra-his
Assay: capture ELISA: antibody captured on anti-IgG Fc plate, biotin human IL4Rα-his detected
Kindly format the answer as number then unit.

Report EC50 for every entry below.
1. chimeric antibody B8G11F2B7G5E8 (antibody, human IgG4 S228P, kappa, V domains shown, Mouse variable domains on human IgG4/kappa; also called Chimeric B8G11F2B7G5E8; chB8G11F2B7G5E8) VH: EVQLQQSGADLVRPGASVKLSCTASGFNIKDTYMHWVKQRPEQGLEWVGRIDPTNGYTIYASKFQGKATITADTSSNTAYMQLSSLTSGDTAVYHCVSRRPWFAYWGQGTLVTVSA VL: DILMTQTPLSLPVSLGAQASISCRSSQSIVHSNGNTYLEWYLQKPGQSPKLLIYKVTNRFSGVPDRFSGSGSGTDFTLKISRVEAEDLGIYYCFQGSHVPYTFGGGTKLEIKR
2. chimeric antibody C2C1A1A1 (antibody, human IgG4 S228P, kappa, V domains shown, Mouse variable domains on human IgG4/kappa; also called Chimeric C2C1A1A1; chC2C1A1A1) VH: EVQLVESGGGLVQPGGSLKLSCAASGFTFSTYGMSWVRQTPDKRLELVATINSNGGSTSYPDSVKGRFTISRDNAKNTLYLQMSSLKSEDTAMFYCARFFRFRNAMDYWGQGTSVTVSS VL: DIQMTQSPASLSASVGETVTITCRTSENIYSYLAWYQQKQGKSPQFLVYNAKTLAEGVPSRFSGSGSGTQFSLNINSLQSEDFGSYYCQHYYGPPTWTFGGGTKLEIKR
3. mouse antibody C2C1A1A1 (antibody, V domains shown, Mouse hybridoma mAb; also called Mouse C2C1A1A1) VH: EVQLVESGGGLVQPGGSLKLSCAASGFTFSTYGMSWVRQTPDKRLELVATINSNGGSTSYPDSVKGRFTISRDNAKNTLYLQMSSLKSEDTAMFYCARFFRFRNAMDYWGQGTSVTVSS VL: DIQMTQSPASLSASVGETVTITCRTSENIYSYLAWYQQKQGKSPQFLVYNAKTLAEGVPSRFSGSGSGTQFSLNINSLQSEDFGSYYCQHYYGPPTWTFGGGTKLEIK

Ans.
1: 0.275 nM; 2: 0.0549 nM; 3: 0.0262 nM
